biological target: FGFR3 (SEQ ID NO: 5, amino acids 449-759) (Homo sapiens (Human)); assay: LC/MS FGFR3 kobs assay (covalent protein modification); format: binding; conditions: 500 nM FGFR3, 3 μM compound
Sequence (P22607 449-759): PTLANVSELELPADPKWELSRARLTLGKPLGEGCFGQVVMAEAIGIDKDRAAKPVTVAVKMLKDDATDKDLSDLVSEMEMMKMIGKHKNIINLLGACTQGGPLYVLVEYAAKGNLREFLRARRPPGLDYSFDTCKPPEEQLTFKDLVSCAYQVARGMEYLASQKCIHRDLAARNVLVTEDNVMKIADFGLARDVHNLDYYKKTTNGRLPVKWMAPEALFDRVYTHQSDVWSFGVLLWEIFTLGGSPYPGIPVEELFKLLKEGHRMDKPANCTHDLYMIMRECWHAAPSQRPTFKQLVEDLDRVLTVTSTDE
MEASUREMENT_KIND: FGFR3 Enz kobs (min⁻¹)

Record excerpt, results attached:
MOLECULE	TARGET_OR_TEST_SYSTEM	READOUT_UNITS	MEASURED_VALUE
C=CC(=O)N1CC(C(=O)N2CC3CCC(C2)N3c2ccc(-c3cc(OC)c4c(C#N)cnn4c3)cn2)C1 [Example 51]	FGFR3 (SEQ ID NO: 5, amino acids 449-759) (Homo sapiens (Human))	min⁻¹	0.01769
C=CC(=O)Nc1ccccc1C(=O)N1CCC[C@@H](n2cc(-c3cc(OC)c4c(C#N)cnn4c3)cn2)C1 [Example 25]	FGFR3 (SEQ ID NO: 5, amino acids 449-759) (Homo sapiens (Human))	min⁻¹	0.00672
C=CC(=O)N1CC(S(=O)(=O)N2CCC(n3cc(-c4cc(OC)c5c(C#N)cnn5c4)cn3)CC2)C1 [Example 134]	FGFR3 (SEQ ID NO: 5, amino acids 449-759) (Homo sapiens (Human))	min⁻¹	0.02537

(1) C=CC(=O)N1CC(C(=O)N2CCC(n3ncc(-c4cc(OC)c5c(C#N)cnn5c4)c3C)CC2)C1 [Example 84]
(2) CC#CC(=O)N1CC(F)(C(=O)N2CCC(n3ncc(-c4cc(OC)c5c(C#N)cnn5c4)c3C)CC2)C1 [Example 156]
(3) C=CC(=O)N1CC(C(=O)N2CCN(c3ccc(-c4cc(OC)c5c(C#N)cnn5c4)cn3)CC2)C1 [Example 111]
(4) C=CC(=O)N1CCC2(CC1)CC(C(=O)N1CCC(n3cc(-c4cc(OC)c5c(C#N)cnn5c4)cn3)CC1)C2 [Example 48]
Request: Order field: FGFR3 Enz kobs | Direction: descending (largest first) Answer format: the labels, ordered as requested.
Response: 3, 1, 2, 4
(3: 0.04009 min⁻¹, 1: 0.02394 min⁻¹, 2: 0.00585 min⁻¹, 4: 0.00114 min⁻¹)
